# Test system: DU-145 prostate
# experiment.description: NCI-60 one-dose screen, 48 h (100 = growth as untreated, 0 = no growth, -100 = all killed)
# conditions.used: 10 µM unless noted
This is part of a sample that, as a whole, favours compounds with a hit. Of some 83,000 tested, about 20% had one in any assay.
Binary classification by growth, with 80% as an inclusive lower bound for Condition met; all other cases are Condition not met.

Given `Cc1cc2c(-c3nc4ccccn4c3NC34CC5CC(CC(C5)C3)C4)c(O)c(O)cc2c(O)c1-c1c(C)cc2c(-c3nc4ccccn4c3NC34CC5CC(CC(C5)C3)C4)c(O)c(O)cc2c1O` , state whether its growth is at least 80%. Condition not met

Given Nc1cc2c(cc1Br)-c1c(C(=O)O)cccc1C2O (stereo not given) , state whether its growth is at least 80%. Condition met

Given COc1cc2c(c(OC)c1)C1c3ccccc3NC(=O)N1CC2 (stereo not given) , state whether its growth is at least 80%. Condition not met

Given `CCS(=O)(=O)N1CCN(c2ccc(Nc3ncc(C(N)=O)c(NC4CC4)n3)cc2)CC1` , state whether its growth is at least 80%. Condition met

Given `Cc1nc(Nc2n[nH]c3c2CN(C(=O)N[C@H](CN(C)C)c2ccccc2)C3(C)C)c2sccc2n1` , state whether its growth is at least 80%. Condition not met

Given `Cc1cc(-c2cc(OC(=O)c3ccccc3)ccc2Cl)cc2nnc(Nc3ccc(OCCN4CCCC4)cc3)nc12` , state whether its growth is at least 80%. Condition met

Given `CCCCCCCCCCCC[n+]1ccccc1` , state whether its growth is at least 80%. Condition not met

Given `CN1C/C=C\CCOc2cccc(c2)-c2ccnc(n2)Nc2cccc(c2)C1` , state whether its growth is at least 80%. Condition not met

Given `COC(=O)CCCNc1c(-c2c(O)c(O)cc3c(O)c(-c4c(C)cc5c(-c6nc7ccccn7c6NCCCC(=O)OC)c(O)c(O)cc5c4O)c(C)cc23)nc2ccccn12` , state whether its growth is at least 80%. Condition not met

Given `COc1cc(CCc2cc(NC(=O)c3ccc(N4C[C@@H](C)N[C@@H](C)C4)cc3)n[nH]2)cc(OC)c1` , state whether its growth is at least 80%. Condition not met

Given CC1(C=O)NC(=O)NC1=O (stereo not given) , state whether its growth is at least 80%. Condition met

Given CC(=O)OC1Oc2ccccc2-c2oc(=O)c(-c3cc4ccc(N(C)C)cc4oc3=O)cc21 (stereo not given) , state whether its growth is at least 80%. Condition not met

Measured values drawn from PubChem BioAssay (NCI) for this set.
